The reported measurements were obtained from paper PMC12005789.

Molecular target: T1, human FXR LBD wild-type recombinant protein (human)
T1 chain: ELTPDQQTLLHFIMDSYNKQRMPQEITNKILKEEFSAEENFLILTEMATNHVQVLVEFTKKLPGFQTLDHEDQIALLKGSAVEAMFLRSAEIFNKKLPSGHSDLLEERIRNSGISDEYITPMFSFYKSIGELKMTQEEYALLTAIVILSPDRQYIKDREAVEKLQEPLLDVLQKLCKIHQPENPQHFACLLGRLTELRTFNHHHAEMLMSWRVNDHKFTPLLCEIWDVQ
Experiment: SPR; with GW4064
Ends that are not written are not given here.
Experimental Readout: pKd
In plain terms, pKd is the concentration in mol/L turned into minus its base-10 logarithm.

In: Which measured pKd value corresponds to QEPVSPKKKENALLRYLLDKDDTKD (also: biotinylated (position not given here)) [SRC2-3 biotinylated cofactor peptide] ?
Out: 6.73
